# System: MRSE
# protocol.notes: MIC by broth microdilution method
# Type: cell-based
# measurement.setup: Staphylococcus epidermidis, MRSA / MRSE; MRSE, broth microdilution; read-out: MIC Vs MRSA (μg/ml) MRSE
quantity.kind: MIC

Query: Quick check: MIC of O=C1CNCc2cc(/C=C/C(=O)N3CC=C(Cc4cccs4)CC3)cnc2N1 ?
Response: 0.25 µg/mL

Query: What about this molecule? O=C1CCc2cc(/C=C/C(=O)N3CC=C(COc4ccccc4)CC3)cnc2N1
Response: 4 µg/mL

Query: Entry to check: O=C(/C=C/c1cnc2c(c1)CN(CCN1CCOCC1)C(=O)N2)N1CC=C(Cc2cccs2)CC1
Response: > 128 µg/mL

Query: Next record, please: O=C1CCc2cc(/C=C/C(=O)N3CC=C(c4ccccc4)CC3)cnc2N1
Response: 4 µg/mL

Query: And the next one, CN1CC(=O)Nc2ncc(/C=C/C(=O)N3CC=C(Cc4cccs4)CC3)cc2C1 ?
Response: 1 µg/mL

====

# Test system: Fab I
# measurement.setup: 1 μM compound
quantity.kind: FAB-I inhibition %@1 μM (%)
The figure you give is taken to be in %; do not add the unit.

Query: Form field: reported FAB-I inhibition %@1 μM of Cc1ccc(CC2=CCN(C(=O)/C=C/c3cnc4c(c3)CCC(=O)N4)CC2)cc1 [Compound 70]
Response: 63.47

Query: Same read-out for O=C1CCc2cc(/C=C/C(=O)N3CC=C(Cn4cccn4)CC3)cnc2N1 [Compound 100] ?
Response: 77

Query: Same lookup for O=C1CCc2cc(/C=C/C(=O)N3CC=C(Cc4cccc(Cl)c4)CC3)cnc2N1 [Compound 67] , please.
Response: 63

Query: Param item: O=C1CCc2cc(/C=C/C(=O)N3CC=C(Cc4sccc4Cl)CC3)cnc2N1 [Compound 87]
Response: 69.05

Query: Another compound to check: O=C(/C=C/c1cnc2c(c1)CN(CCN1CCOCC1)C(=O)N2)N1CC=C(Cc2cccs2)CC1 [Compound 90]
Response: 89

Query: Entry to check: O=C1CCc2cc(/C=C/C(=O)N3CC=C(Cc4cccc(F)c4)CC3)cnc2N1 [Compound 65]
Response: 90

Query: Check O=C1CCc2cc(/C=C/C(=O)N3CC=C(COc4ccccc4)CC3)cnc2N1 [Compound 107] too.
Response: 95

Query: Subsequent entry: O=C1CCc2cc(/C=C/C(=O)N3CC=C(Cc4cccs4)CC3)cnc2N1 [Compound 84]
Response: 100

Query: Input O=C1CCNc2cc(/C=C/C(=O)N3CC=C(Cc4cccs4)CC3)cnc2N1 [Compound 91]
Response: 93

====

# Tested on: MRSE
# protocol.notes: MIC by broth microdilution method
# Type: cell-based
# measurement.setup: MRSE, broth microdilution
quantity.kind: MIC Vs MRSA (μg/ml) MRSE (µg/mL)
Field format: number, assumed µg/mL, no unit text.

Query: # query: MIC Vs MRSA (μg/ml) MRSE of entry O=C1CCc2cc(/C=C/C(=O)N3CC=C(Cc4cccc(Cl)c4)CC3)cnc2N1
Response: 2

Query: Follow-up entry: O=C1CCc2cc(/C=C/C(=O)N3CC=C(c4ccc(F)cc4)CC3)cnc2N1
Response: 8

Query: Now this one: O=C1CCc2cc(/C=C/C(=O)N3CC=C(Cn4cccn4)CC3)cnc2N1
Response: 128

The reported numbers originate from patent US9062002B2.
